Biological target: δ-opioid receptor (Mus musculus)
Construct: from tissue; host or cells: vas deferens of male ddy mice
Assay: Change in δ-antagonist activity against DPDPE with time in mouse vas deferens (MVD)
Conditions: 15 min; 173 and NTI at 20 nM, 174 and 5'-NTII at 100 nM

>  <COMPOUND>
Oc1ccc2c3c1O[C@H]1c4[nH]c5cc(N=C=S)ccc5c4C[C@@]4(O)[C@@H](C2)N(CC2CC2)CC[C@]314

>  <TARGET_SYSTEM>
δ-opioid receptor (Mus musculus)

>  <Ratio of IC50 Values>
25.7

$$$$
>  <COMPOUND>
Oc1ccc2c3c1O[C@H]1c4[nH]c5c(N=C=S)cccc5c4C[C@@]4(O)[C@@H](C2)N(CC2CC2)CC[C@]314

>  <TARGET_SYSTEM>
δ-opioid receptor (Mus musculus)

>  <Ratio of IC50 Values>
105

$$$$
>  <COMPOUND>
Oc1ccc2c3c1O[C@H]1c4[nH]c5ccc(N=C=S)cc5c4C[C@@]4(O)[C@@H](C2)N(CC2CC2)CC[C@]314 [5'-NTII, reference compound]

>  <TARGET_SYSTEM>
δ-opioid receptor (Mus musculus)

>  <Ratio of IC50 Values>
3.28

$$$$
>  <COMPOUND>
Oc1ccc2c3c1O[C@H]1c4[nH]c5ccccc5c4C[C@@]4(O)[C@@H](C2)N(CC2CC2)CC[C@]314 [NTI, reference compound]

>  <TARGET_SYSTEM>
δ-opioid receptor (Mus musculus)

>  <Ratio of IC50 Values>
96.3

$$$$

###

Below, each of the molecules is paired with its reported Ratio of IC50 Values value.
Target: δ-opioid receptor (Mus musculus, UniProt P32300)
Construct: from tissue; host or cells: vas deferens of male ddy mice
Sequence (P32300 whole entry): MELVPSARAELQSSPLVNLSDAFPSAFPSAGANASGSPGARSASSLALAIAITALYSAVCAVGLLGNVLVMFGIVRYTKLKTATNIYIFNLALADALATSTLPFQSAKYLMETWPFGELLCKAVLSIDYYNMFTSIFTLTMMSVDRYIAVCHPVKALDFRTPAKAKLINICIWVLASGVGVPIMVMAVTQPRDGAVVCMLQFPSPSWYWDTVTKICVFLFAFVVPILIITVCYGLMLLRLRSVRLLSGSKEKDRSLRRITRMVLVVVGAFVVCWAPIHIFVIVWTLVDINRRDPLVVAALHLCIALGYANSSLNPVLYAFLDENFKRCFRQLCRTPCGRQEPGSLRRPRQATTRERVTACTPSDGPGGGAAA
Experiment: δ-opioid antagonist activity against DPDPE in mouse vas deferens (MVD)
Details: DPDPE IC50 with/without 100 nM test compound, 20 min

>  <MOLECULE>
O=C(NCC1CC1)c1cccc2[nH]c3c(c12)C[C@@]1(O)[C@H]2Cc4ccc(O)c5c4[C@@]1(CCN2CC1CC1)[C@H]3O5 [Compound 46]

>  <Ratio of IC50 Values>
1.39

$$$$
>  <MOLECULE>
CSc1ccc2c3c([nH]c2c1)[C@@H]1Oc2c(O)ccc4c2[C@@]12CCN(CC1CC1)[C@H](C4)[C@]2(O)C3 [Compound 43]

>  <Ratio of IC50 Values>
168

$$$$
>  <MOLECULE>
C=CCN1CC[C@]23c4c5ccc(O)c4O[C@H]2c2[nH]c4cc(C(=O)OC)ccc4c2C[C@@]3(O)[C@H]1C5 [Compound 115]

>  <Ratio of IC50 Values>
75.4

$$$$
>  <MOLECULE>
N#Cc1ccc2[nH]c3c(c2c1)C[C@@]1(O)[C@H]2Cc4ccc(O)c5c4[C@@]1(CCN2CC1CC1)[C@H]3O5 [Compound 8]

>  <Ratio of IC50 Values>
3.60

$$$$

###

Target: δ-opioid receptor (Mus musculus)
Construct: from tissue; host or cells: vas deferens of male ddy mice
Experiment: δ-opioid antagonist activity against DPDPE in mouse vas deferens (MVD)
Conditions: DPDPE IC50 with/without 100 nM test compound, 20 min
Below, each of the compounds is paired with its reported Ratio of IC50 Values value.

>  <COMPOUND>
O=[N+]([O-])c1cccc2[nH]c3c(c12)C[C@@]1(O)[C@H]2Cc4ccc(O)c5c4[C@@]1(CCN2CC1CC1)[C@H]3O5 [Compound 78]

>  <Ratio of IC50 Values>
148

$$$$
>  <COMPOUND>
COC(=O)c1ccc2c3c([nH]c2c1)[C@@H]1Oc2c(O)ccc4c2[C@@]12CCN(CC1CC1)[C@H](C4)[C@]2(O)C3 [Compound 77]

>  <Ratio of IC50 Values>
742

$$$$
>  <COMPOUND>
CN(C)S(=O)(=O)c1ccc2c3c([nH]c2c1)[C@@H]1Oc2c(O)ccc4c2[C@@]12CCN(CC1CC1)[C@H](C4)[C@]2(O)C3 [Compound 51]

>  <Ratio of IC50 Values>
33.2

$$$$
>  <COMPOUND>
OCCc1cccc2[nH]c3c(c12)C[C@@]1(O)[C@H]2Cc4ccc(O)c5c4[C@@]1(CCN2CC1CC1)[C@H]3O5 [Compound 40]

>  <Ratio of IC50 Values>
4.60

$$$$
>  <COMPOUND>
OCCc1ccc2c3c([nH]c2c1)[C@@H]1Oc2c(O)ccc4c2[C@@]12CCN(CC1CC1)[C@H](C4)[C@]2(O)C3 [Compound 41]

>  <Ratio of IC50 Values>
22.1

$$$$
>  <COMPOUND>
O=S(=O)(NCC1CC1)c1ccc2c3c([nH]c2c1)[C@@H]1Oc2c(O)ccc4c2[C@@]12CCN(CC1CC1)[C@H](C4)[C@]2(O)C3 [Compound 45]

>  <Ratio of IC50 Values>
7.44

$$$$
>  <COMPOUND>
CN(C)CCc1ccc2[nH]c3c(c2c1)C[C@@]1(O)[C@H]2Cc4ccc(O)c5c4[C@@]1(CCN2CC1CC1)[C@H]3O5 [Compound 9]

>  <Ratio of IC50 Values>
25.6

$$$$
>  <COMPOUND>
CSc1cccc2c3c([nH]c12)[C@@H]1Oc2c(O)ccc4c2[C@@]12CCN(CC1CC1)[C@H](C4)[C@]2(O)C3 [Compound 121]

>  <Ratio of IC50 Values>
33.6

$$$$
>  <COMPOUND>
Oc1ccc2c3c1O[C@H]1c4[nH]c5c(ccc6cnccc65)c4C[C@@]4(O)[C@@H](C2)N(CC2CC2)CC[C@]314 [Compound 156]

>  <Ratio of IC50 Values>
26.6

$$$$
>  <COMPOUND>
Oc1ccc2c3c1O[C@H]1c4[nH]c5c(-c6ccccc6)cccc5c4C[C@@]4(O)[C@@H](C2)N(CC2CC2)CC[C@]314 [Compound 120]

>  <Ratio of IC50 Values>
17.0

$$$$
>  <COMPOUND>
Oc1ccc2c3c1O[C@H]1c4[nH]c5c6c(ccc5c4C[C@@]4(O)[C@@H](C2)N(CC2CC2)CC[C@]314)CCCC6 [Compound 2]

>  <Ratio of IC50 Values>
22.1

$$$$
>  <COMPOUND>
NS(=O)(=O)c1ccc2[nH]c3c(c2c1)C[C@@]1(O)[C@H]2Cc4ccc(O)c5c4[C@@]1(CCN2CC1CC1)[C@H]3O5 [Compound 5]

>  <Ratio of IC50 Values>
4.36

$$$$
>  <COMPOUND>
Oc1ccc2c3c1O[C@H]1c4[nH]c5ccc(OC(F)(F)F)cc5c4C[C@@]4(O)[C@@H](C2)N(CC2CC2)CC[C@]314 [Compound 4]

>  <Ratio of IC50 Values>
7.95

$$$$
